- target: Man(a1-3)[Man(a1-6)]Man(a1-6)[Man(a1-3)]Man
- procedureDetails: glycan array binding signal (z-score within array); higher = stronger binding
- settings: glycan notation: IUPAC condensed, linker removed
Many of the other results were omitted from the sample, so the strongest signals are more common in it than they were.
Measured glycan array binding signal (z-score), listed per entry.
measurementName: glycan array binding signal (z-score)

* GS13455A-bfa-343-25-343 (Bacteroides fragilis) (protein) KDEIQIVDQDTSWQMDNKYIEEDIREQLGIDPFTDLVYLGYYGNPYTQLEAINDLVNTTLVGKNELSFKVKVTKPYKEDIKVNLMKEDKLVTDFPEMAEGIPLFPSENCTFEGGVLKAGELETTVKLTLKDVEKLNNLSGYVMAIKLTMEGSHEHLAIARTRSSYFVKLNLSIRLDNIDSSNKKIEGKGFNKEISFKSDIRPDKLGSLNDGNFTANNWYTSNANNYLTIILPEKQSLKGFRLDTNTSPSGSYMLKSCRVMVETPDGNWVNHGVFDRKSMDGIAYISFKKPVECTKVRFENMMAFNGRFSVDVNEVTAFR | -0.129
* CALR truncated at D342 (Homo sapiens) (protein) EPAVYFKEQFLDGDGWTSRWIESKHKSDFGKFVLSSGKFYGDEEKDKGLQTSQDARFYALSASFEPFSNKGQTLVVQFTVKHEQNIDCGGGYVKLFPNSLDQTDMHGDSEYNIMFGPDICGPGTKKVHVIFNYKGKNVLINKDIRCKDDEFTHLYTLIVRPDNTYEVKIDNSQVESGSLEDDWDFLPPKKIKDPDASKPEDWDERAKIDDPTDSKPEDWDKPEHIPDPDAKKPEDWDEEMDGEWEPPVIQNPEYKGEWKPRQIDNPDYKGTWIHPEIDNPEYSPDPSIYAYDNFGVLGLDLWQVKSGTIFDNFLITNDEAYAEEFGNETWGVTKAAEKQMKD | -0.102
* RVL (Remusatia vivipara), B5LYJ9 (protein) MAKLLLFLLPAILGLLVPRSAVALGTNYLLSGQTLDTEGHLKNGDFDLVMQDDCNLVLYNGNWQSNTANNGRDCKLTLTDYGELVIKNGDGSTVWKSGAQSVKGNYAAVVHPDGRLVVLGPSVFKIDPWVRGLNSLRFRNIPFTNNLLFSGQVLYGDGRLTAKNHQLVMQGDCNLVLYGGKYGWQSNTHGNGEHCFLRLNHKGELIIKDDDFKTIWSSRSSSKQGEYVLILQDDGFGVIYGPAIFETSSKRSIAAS | 0.224
* LTL (Lotus tetragonolobus), P19664 (protein) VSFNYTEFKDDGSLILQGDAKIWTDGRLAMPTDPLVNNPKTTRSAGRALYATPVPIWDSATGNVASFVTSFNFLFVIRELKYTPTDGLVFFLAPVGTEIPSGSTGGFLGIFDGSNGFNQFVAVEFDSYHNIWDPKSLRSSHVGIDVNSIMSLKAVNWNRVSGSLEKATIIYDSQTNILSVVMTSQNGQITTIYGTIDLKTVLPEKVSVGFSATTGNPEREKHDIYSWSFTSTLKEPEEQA | 0.02
* rMpL (Macrolepiota procera) (protein) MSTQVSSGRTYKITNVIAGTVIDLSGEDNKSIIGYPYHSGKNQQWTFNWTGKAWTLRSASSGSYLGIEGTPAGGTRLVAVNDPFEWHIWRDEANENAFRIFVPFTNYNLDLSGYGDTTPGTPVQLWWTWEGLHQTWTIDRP | -0.268
